Target: hPK, M2 (Homo sapiens, UniProt P14618)
Sequence (P14618 whole entry): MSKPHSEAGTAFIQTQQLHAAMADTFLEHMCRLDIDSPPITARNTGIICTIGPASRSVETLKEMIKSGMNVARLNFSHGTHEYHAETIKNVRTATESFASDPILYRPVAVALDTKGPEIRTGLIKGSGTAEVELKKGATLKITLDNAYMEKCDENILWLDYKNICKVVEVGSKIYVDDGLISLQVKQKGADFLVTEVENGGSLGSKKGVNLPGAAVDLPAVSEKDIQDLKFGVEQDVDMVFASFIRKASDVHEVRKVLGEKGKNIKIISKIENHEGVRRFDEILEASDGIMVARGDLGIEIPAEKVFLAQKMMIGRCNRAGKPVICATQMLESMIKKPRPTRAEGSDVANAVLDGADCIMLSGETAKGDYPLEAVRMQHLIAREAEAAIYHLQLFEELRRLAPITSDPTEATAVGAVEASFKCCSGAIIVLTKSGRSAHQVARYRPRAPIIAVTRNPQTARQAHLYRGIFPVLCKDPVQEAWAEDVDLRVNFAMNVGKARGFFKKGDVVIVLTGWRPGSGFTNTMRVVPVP
Assay: luminescent pyruvate kinase-luciferase coupled assay (qHTS)
Type: biochemical
Details: Table 1; 0.1 mM ADP, 0.5 mM PEP; mean of three replicate experiments; read-out: hPK, M2 AC50
Method: AC50 values were determined utilizing the luminescent pyruvate kinase-luciferase coupled assay (Inglese, J. et al, Quantitative high-throughput screening: a titration-based approach that efficiently identifies biological activities in large chemical libraries. Proc. Natl. Acad. Sci. U.S.A. 2006, 103, 11473-11478). […] Production of a luminescent signal based on the generation of ATP by pyruvate kinase was determined by using the ATP-dependent enzyme firefly luciferase. […]
Reported Property: AC50 (µM)

# Molecular String, AC50 (µM)
measured = [
    ("CC(=O)N1CCc2cc(S(=O)(=O)Nc3ccc(C)c(C)c3)ccc21", 1.8),
    ("Cc1ccc(NS(=O)(=O)c2ccc3c(ccn3C)c2)cc1C", 20),
    ("Cc1ccc(NS(=O)(=O)c2ccc3c(c2)CCCC(=O)N3)cc1C", 18),
]

[A] Cc1ccc(NS(=O)(=O)c2ccc3[nH]c(=O)[nH]c3c2)cc1C
[B] Cc1ccc(NS(=O)(=O)c2ccc3c(c2)n(C)c(=O)n3C)cc1C
[C] Cc1ccc(NS(=O)(=O)c2ccc3c(c2)CCC(=O)N3)cc1C
[D] Cc1ccc(NS(=O)(=O)c2ccc3c(c2)CC(=O)N3)cc1C
Order the records, beginning with the lowest AC50 and ending with the highest. // format: requested-order list of labels C, B, D, A
(C: 0.65 µM, B: 1.8 µM, D: 14.5 µM, A: 21 µM)

[P] Cc1ccc(NS(=O)(=O)c2ccc3c(c2)NC(=O)CO3)cc1C
[Q] Cc1ccc(NS(=O)(=O)c2ccc3c(c2)N(C)C(=O)CO3)cc1C
Could you please tell me which of these two has the higher AC50: P or Q ? In your reply, give the label of the chosen option. P
(P: 20 µM, Q: 0.92 µM)

====

target: hPK, M2 (Homo sapiens, UniProt P14618); test: luminescent pyruvate kinase-luciferase coupled assay (qHTS); type: biochemical; settings: Table 4; maximum response (activation); read-out: Max. Res.
Reported Property: Emax (%)

# Compound, Emax [%]
data = [
    ("Cc1cc(NS(=O)(=O)c2ccc3c(c2)CCC(=O)N3)ccc1Cl [Compound 58]", 96.5),
    ("Cc1ccc(Cl)cc1NS(=O)(=O)c1cc2c(cc1F)NC(=O)CC2 [Compound 48]", 94.6),
    ("O=C1CCc2cc(S(=O)(=O)Nc3ccc(Cl)c(Cl)c3)c(F)cc2N1 [Compound 54]", 109),
    ("Cc1ccc(NS(=O)(=O)c2cc3c(cc2NCCO)NC(=O)CC3)cc1C [Compound 70]", 111),
]

====

molecular target: hPK, M2 (Homo sapiens, UniProt P14618); assay: luminescent pyruvate kinase-luciferase coupled assay (qHTS); type: biochemical; conditions: Table 4; 0.1 mM ADP, 0.5 mM PEP; read-out: AC50
Reported Property: AC50 (nM)

Solved cases below.
# Molecular String, Reported Property, Recorded Result
records = [
    ("Cc1ccc(NS(=O)(=O)c2cc3c(cc2NCCO)NC(=O)CC3)cc1C", "AC50", 90),
    ("Cc1c(Cl)cccc1NS(=O)(=O)c1cc2c(cc1F)NC(=O)CC2", "AC50", 2590),
    ("Cc1ccc(NS(=O)(=O)c2ccc3c(c2)CCC(=O)N3)cc1Cl", "AC50", 260),
    ("Cc1ccc(NS(=O)(=O)c2ccc3c(c2)C(Cl)(Cl)C(=O)N3)cc1C", "AC50", 10300),
    ("Cc1c(Cl)cccc1NS(=O)(=O)c1cc2c(cc1Cl)CCC(=O)N2", "AC50", 1160),
]

[P] Cc1cc(NS(=O)(=O)c2ccc3c(c2)CCC(=O)N3)ccc1Cl
[Q] Cc1ccc(NS(=O)(=O)c2cc3c(cc2F)NC(=O)CC3)cc1Cl
Which value of AC50 is smaller, the one for P or the one for Q ? API: response body contains the label of the selected item. Q
(Q: 120 nM, P: 410 nM)

[P] Cc1ccc(Cl)cc1NS(=O)(=O)c1cc2c(cc1F)NC(=O)CC2
[Q] Cc1ccc(Cl)cc1NS(=O)(=O)c1cc2c(cc1Cl)CCC(=O)N2
Among P and Q , whose measured AC50 is the smaller figure? Give the chosen item's label as your response. Q
(Q: 2910 nM, P: 4610 nM)
